System: PfAP2-I AP2 domain 3 (GST-tagged)
Assay: gcPBM binding intensity (ln(normalized median fluorescence intensity)); higher = stronger DNA binding
Whole data set: some 25,000 sequences, median “ln(normalized median fluorescence intensity)” near 7.9, cut for the highest 2% near 11. This excerpt belongs to a sample that is enriched for the highest values.
Everything with gcPBM binding intensity (ln) lower than 10 is not met; everything else, including exactly 10, is met.

1) AAAAAAAATATACATACATGCATACATAAGTTTCTA [TGCATGCA_site998] ... not met

Does AATACATGAATATGTAGTACAGAAAAAAAAAATATA [XGTACX_site1945] have a reported gcPBM binding intensity (ln) of at least 10?
not met

What do you have for GTATTCATGCTAAAGGTGCAATAATTTTTATAATAA [GTGCAC_site9603] ?
met
